System: Staphylococcus epidermidis (PCM 2118)
Format: cell-based
Settings: PCM 2118; TFA salt; Mueller-Hinton broth, 10^5 cfu/mL, 18 h 37°C; triplicate
Where a SMILES comes first, the peptide text is derived from it. The star is where a group is joined. Octanoyl = CCCCCCCC(=O)*
READOUT_NAME: MIC Staphylococcus epidermidis

MIC Staphylococcus epidermidis recorded for this compound, CCCCCCCC(=O)N[C@@H](CCCCN)C(=O)N[C@@H](CCCCN)C(=O)N[C@@H](CCCCN)C(=O)N[C@@H](CCCCN)C(N)=O [C8-KKKK-NH2] (Octanoyl-KKKK-NH2) , is >2000 µg/mL

Sample `CCCCCCCC(=O)N[C@@H](CCCCN)C(N)=O` ; MIC Staphylococcus epidermidis observed: >1000 µg/mL

Value of MIC Staphylococcus epidermidis reported for the compound CCCCCCCC(=O)N[C@@H](CCCCN)C(=O)NCC(N)=O [C8-KG-NH2] (Octanoyl-Lys-Gly-NH2) is >2000 µg/mL

MIC Staphylococcus epidermidis reading for CCCCCCCC(=O)N[C@@H](CCCCN)C(=O)NCC(=O)N[C@@H](CCCCN)C(=O)NCC(N)=O [C8-KGKG-NH2] (Octanoyl-KGKG-NH2) : >2000 µg/mL

The compound listed as `CCCCCCCC(=O)N[C@@H](CCCCN)C(=O)N[C@@H](CCCCN)C(N)=O` has a reported MIC Staphylococcus epidermidis of >1000 µg/mL

====

I'd be grateful if you could share measured MBC Staphylococcus epidermidis for these entries.
Test system: Staphylococcus epidermidis (PCM 2118)
Type: cell-based
Conditions: PCM 2118, 24 h
Where a SMILES comes first, the peptide text is derived from it. The star is where a group is joined. Lauroyl = CCCCCCCCCCCC(=O)*
Your answer is read as µg/mL, so omit the unit and give the number.

Quick note, MBC Staphylococcus epidermidis for `CCCCCCCCCC(=O)N[C@@H](CCCCN)C(N)=O` landed at 1000

For record CCCCCCCCCCCC(=O)N[C@@H](CCCCN)C(=O)NCC(=O)N[C@@H](CCCCN)C(N)=O [C12-KGK-NH2] (Lauroyl-Lys-Gly-Lys-NH2) the listed MBC Staphylococcus epidermidis is 128

Looking up CCCCCCCCCCCC(=O)N[C@@H](CCCCN)C(=O)NCC(N)=O [C12-KG-NH2] (Lauroyl-Lys-Gly-NH2) , I found its MBC Staphylococcus epidermidis recorded as 128

Record summary for CCCCCCCCCCCC(=O)N[C@@H](CCCCN)C(=O)NCC(=O)N[C@@H](CCCCN)C(=O)NCC(N)=O [C12-KGKG-NH2] (Lauroyl-KGKG-NH2) : reported MBC Staphylococcus epidermidis = 512

Please fill in: MBC Staphylococcus epidermidis reported for `CCCCCCCCCCCCCC(=O)N[C@@H](CCCCN)C(=O)N[C@@H](CCCCN)C(=O)N[C@@H](CCCCN)C(N)=O` = 8

# MBC Staphylococcus epidermidis of `CCCCCCCCCCCC(=O)N[C@@H](CCCCN)C(=O)N[C@@H](CCCCN)C(N)=O` = 64

For record CCCCCCCCCCCC(=O)N[C@@H](CCCCN)C(=O)N[C@@H](CCCCN)C(=O)N[C@@H](CCCCN)C(=O)N[C@@H](CCCCN)C(N)=O [C12-KKKK-NH2] (Lauroyl-KKKK-NH2) the listed MBC Staphylococcus epidermidis is 64

====

Test system: Aspergillus brasiliensis (ATCC 16404)
Format: cell-based
Settings: ATCC 16404, 48 h
Procedure: The minimum inhibitory concentration (MIC), minimum bactericidal concentration (MBC) and minimum fungicidal concentration (MFC) were determined according to the procedure recommended by the Clinical Laboratory Standards Institute (CLSI). […] MIC was determined using a microbroth dilution method with Mueller-Hinton (MH) broth for bacteria and Sabouraud Dextrose broth for fungi (Becton Dickinson, Le Pont de Claix, France). […]
Where a SMILES comes first, the peptide text is derived from it. The star is where a group is joined. Palmitoyl = CCCCCCCCCCCCCCCC(=O)*; Lauroyl = CCCCCCCCCCCC(=O)*; Decanoyl = CCCCCCCCCC(=O)*; Octanoyl = CCCCCCCC(=O)*
READOUT_NAME: MFC Aspergillus brasiliensis (µg/mL)
// return numeric value only (unit: µg/mL, not printed)

Value of MFC Aspergillus brasiliensis reported for the compound CCCCCCCC(=O)N[C@@H](CCCCN)C(=O)N[C@@H](CCCCN)C(N)=O [C8-KK-NH2] is 1000

The compound identified as CCCCCCCCCCCC(=O)N[C@@H](CCCCN)C(=O)NCC(=O)N[C@@H](CCCCN)C(N)=O [C12-KGK-NH2] (Lauroyl-Lys-Gly-Lys-NH2) registered its MFC Aspergillus brasiliensis at 2000

GET /value?item= CCCCCCCCCCCCCCCC(=O)N[C@@H](CCCCN)C(=O)NCC(N)=O [C16-KG-NH2] (Palmitoyl-Lys-Gly-NH2) &field=MFC Aspergillus brasiliensis returns 512

Measured MFC Aspergillus brasiliensis of CCCCCCCCCCCCCC(=O)N[C@@H](CCCCN)C(N)=O [C14-K-NH2] : 512

// MFC Aspergillus brasiliensis value for CCCCCCCC(=O)N[C@@H](CCCCN)C(=O)NCC(=O)N[C@@H](CCCCN)C(=O)NCC(N)=O [C8-KGKG-NH2] (Octanoyl-KGKG-NH2) : 2000

Consider CCCCCCCCCC(=O)N[C@@H](CCCCN)C(=O)N[C@@H](CCCCN)C(=O)N[C@@H](CCCCN)C(N)=O [C10-KKK-NH2] . Its measured MFC Aspergillus brasiliensis is 2000

Value of MFC Aspergillus brasiliensis reported for the compound CCCCCCCCCC(=O)N[C@@H](CCCCN)C(=O)NCC(N)=O [C10-KG-NH2] (Decanoyl-Lys-Gly-NH2) is 2000

====

System: Enterococcus faecalis (ATCC 29212)
Type: cell-based
Conditions: ATCC 29212; TFA salt; Mueller-Hinton broth, 10^5 cfu/mL, 18 h 37°C; triplicate
Where a SMILES comes first, the peptide text is derived from it. The star is where a group is joined. Decanoyl = CCCCCCCCCC(=O)*; Octanoyl = CCCCCCCC(=O)*
READOUT_NAME: MIC Enterococcus fecalis

For CCCCCCCCCC(=O)N[C@@H](CCCCN)C(=O)NCC(=O)N[C@@H](CCCCN)C(N)=O [C10-KGK-NH2] (Decanoyl-Lys-Gly-Lys-NH2) the molecule record lists MIC Enterococcus fecalis as >2000 µg/mL

Short answer for CCCCCCCC(=O)N[C@@H](CCCCN)C(=O)NCC(=O)N[C@@H](CCCCN)C(=O)NCC(N)=O [C8-KGKG-NH2] (Octanoyl-KGKG-NH2) : MIC Enterococcus fecalis was >2000 µg/mL

For this molecule ( CCCCCCCCCC(=O)N[C@@H](CCCCN)C(=O)N[C@@H](CCCCN)C(=O)N[C@@H](CCCCN)C(=O)N[C@@H](CCCCN)C(N)=O [C10-KKKK-NH2] (Decanoyl-KKKK-NH2) ), measured MIC Enterococcus fecalis is >2000 µg/mL

====

System: Escherichia coli (ATCC 25922)
Type: cell-based
Settings: ATCC 25922, 18 h
Where a SMILES comes first, the peptide text is derived from it. The star is where a group is joined. Palmitoyl = CCCCCCCCCCCCCCCC(=O)*; Myristoyl = CCCCCCCCCCCCCC(=O)*
READOUT_NAME: MBC Escherichia coli, lipopeptides without TFA counter ion
The reply should consist of the numeric value with the unit placed after it.

Kindly note the recorded MBC Escherichia coli, lipopeptides without TFA counter ion for CCCCCCCCCCCCCC(=O)N[C@@H](CCCCN)C(N)=O [C14-K-NH2] , which is 128 µg/mL

The value of MBC Escherichia coli, lipopeptides without TFA counter ion measured for the compound CCCCCCCCCCCCCC(=O)N[C@@H](CCCCN)C(=O)N[C@@H](CCCCN)C(=O)N[C@@H](CCCCN)C(=O)N[C@@H](CCCCN)C(N)=O [C14-KKKK-NH2] (Myristoyl-KKKK-NH2) turned out to be 256 µg/mL

Documented MBC Escherichia coli, lipopeptides without TFA counter ion of CCCCCCCCCCCCCC(=O)N[C@@H](CCCCN)C(=O)N[C@@H](CCCCN)C(=O)N[C@@H](CCCCN)C(N)=O [C14-KKK-NH2] : 128 µg/mL

Just so you know, measured MBC Escherichia coli, lipopeptides without TFA counter ion for CCCCCCCCCCCCCCCC(=O)N[C@@H](CCCCN)C(=O)NCC(N)=O [C16-KG-NH2] (Palmitoyl-Lys-Gly-NH2) came out at 256 µg/mL

Consider CCCCCCCCCCCCCC(=O)N[C@@H](CCCCN)C(=O)NCC(=O)N[C@@H](CCCCN)C(=O)NCC(N)=O [C14-KGKG-NH2] (Myristoyl-KGKG-NH2) . Its measured MBC Escherichia coli, lipopeptides without TFA counter ion is 128 µg/mL

CCCCCCCCCCCCCC(=O)N[C@@H](CCCCN)C(=O)N[C@@H](CCCCN)C(N)=O [C14-KK-NH2] has a reported MBC Escherichia coli, lipopeptides without TFA counter ion of 64 µg/mL

Recorded result, CCCCCCCCCCCCCCCC(=O)N[C@@H](CCCCN)C(N)=O [C16-K-NH2] , MBC Escherichia coli, lipopeptides without TFA counter ion: 512 µg/mL
